B1: tRNA (parent)
chain: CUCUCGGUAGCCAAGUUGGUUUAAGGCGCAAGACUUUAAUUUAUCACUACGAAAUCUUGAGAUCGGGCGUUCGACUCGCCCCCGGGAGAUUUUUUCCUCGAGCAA

variants of: B1; test: nonsense suppression (GFP-seq) (ratio to wild type); higher = more function; SUP4oc tRNA, yeast GFP reporter sort-seq
This sample holds only a part of the variants without activity.
RECORDED_ENDPOINT: nonsense suppression
One number for each entry.

>>> reported_value("A24C A60G")
0.258

Provide the reported nonsense suppression of each entry below, same order.
1. A54C C81U
2. A14G G61C
3. G61C A87U
4. G78C G85U

1: 0.21; 2: 0.0278; 3: 0.3; 4: 0.232

Provide the reported nonsense suppression of each entry below, same order.
1. U4C U16C A31U
2. C3U C77G
3. G25U C34U G59A
4. A9G A13C
5. U2G G85U
6. G78A A87C
7. A13U C79U

0.97
0.0323
1.15
0.183
0.0411
0.032
0.175

Provide the reported nonsense suppression of each entry below, same order.
1. A9G
2. U4C A87C
3. A13C U63A
4. G19C U63C C83A
5. A13U U16G
6. G61A C79U
7. A24U C29U
8. U21G U71C

1. 0.45
2. 0.197
3. 1.17
4. 0.789
5. 0.819
6. 0.209
7. 0.233
8. 0.0265

Provide the reported nonsense suppression of each entry below, same order.
1. U4C C27U G61A
2. A54G C79U
3. C29G A33G G67A U71G G86A
4. G61A A87U
5. U17G C64A
6. C3U U63A
7. U17G A60C

[0.205, 0.0263, 1.12, 0.181, 0.0364, 0.12, 0.188]

Provide the reported nonsense suppression of each entry below, same order.
1. A13U C64U
2. U21G A31G

[0.0285, 0.77]

Provide the reported nonsense suppression of each entry below, same order.
1. U20C G28A U57G C77A
2. G61A A89G
3. C75U G85A
4. G73A U76C
5. G32C C56G A60C
6. U20G U63A
7. A30U A60U
8. A60U A62G

0.813
0.0396
1.06
0.682
0.275
1.06
0.769
0.112

Provide the reported nonsense suppression of each entry below, same order.
1. G6U A9U
2. C3A A13C
3. U4A A54U

1: 0.0343; 2: 0.0261; 3: 0.191
